Molecular target: NLRP3 (Homo sapiens)
Sequence (Q96P20 whole entry): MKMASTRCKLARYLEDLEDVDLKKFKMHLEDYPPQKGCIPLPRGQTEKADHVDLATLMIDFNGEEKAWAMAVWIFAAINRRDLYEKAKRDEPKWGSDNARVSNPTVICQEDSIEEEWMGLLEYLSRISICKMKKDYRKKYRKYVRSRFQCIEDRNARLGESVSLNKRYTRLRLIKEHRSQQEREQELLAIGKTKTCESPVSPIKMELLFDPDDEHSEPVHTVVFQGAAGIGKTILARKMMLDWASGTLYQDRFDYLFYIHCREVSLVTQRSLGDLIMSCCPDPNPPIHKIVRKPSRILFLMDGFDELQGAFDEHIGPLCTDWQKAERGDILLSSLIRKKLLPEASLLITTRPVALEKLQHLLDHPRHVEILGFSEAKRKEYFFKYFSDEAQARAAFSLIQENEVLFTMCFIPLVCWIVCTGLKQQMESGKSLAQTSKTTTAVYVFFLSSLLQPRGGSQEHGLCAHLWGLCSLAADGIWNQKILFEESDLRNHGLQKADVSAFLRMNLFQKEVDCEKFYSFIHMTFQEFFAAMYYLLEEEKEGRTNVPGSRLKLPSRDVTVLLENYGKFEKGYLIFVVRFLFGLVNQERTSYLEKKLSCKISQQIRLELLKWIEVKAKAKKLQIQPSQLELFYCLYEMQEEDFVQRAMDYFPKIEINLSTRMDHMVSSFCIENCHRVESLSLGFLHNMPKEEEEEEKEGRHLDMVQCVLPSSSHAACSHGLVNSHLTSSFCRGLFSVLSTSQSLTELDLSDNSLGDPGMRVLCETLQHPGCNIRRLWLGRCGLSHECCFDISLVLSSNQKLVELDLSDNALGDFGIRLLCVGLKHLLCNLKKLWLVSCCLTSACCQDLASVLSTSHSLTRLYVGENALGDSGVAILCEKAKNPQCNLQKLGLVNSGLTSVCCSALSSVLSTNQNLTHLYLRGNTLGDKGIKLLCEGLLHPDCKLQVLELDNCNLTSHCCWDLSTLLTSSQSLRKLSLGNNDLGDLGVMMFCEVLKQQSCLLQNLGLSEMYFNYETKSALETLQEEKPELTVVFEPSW
Assay: THP-1 cell-based NLRP3 activation assay
Settings: PMA-differentiated THP-1 cells, LPS 100 ng/mL then 10 μM nigericin
PROPERTY_LABEL: IC50

The following compounds have reported results that may help.
[
  {
    "COMPOUND": "CCOc1cc(C(=O)N(Cc2cncc3cn[nH]c23)C2CC(N(C)C)C2)ccc1-c1cccc(Cl)c1 (stereo not drawn)",
    "IC50": "100 to 500 nM"
  },
  {
    "COMPOUND": "CCOc1cc(C(=O)N(C)[C@H](CO)c2cncc3cn[nH]c23)ccc1-c1cccc(F)c1",
    "IC50": "< 100 nM"
  },
  {
    "COMPOUND": "CCOc1cc(C(=O)N(C)[C@@H](c2cncc3cn[nH]c23)[C@@H]2CCNC2)ccc1-c1ccccc1",
    "IC50": "< 100 nM"
  },
  {
    "COMPOUND": "CCOc1cc(C(=O)N(C)[C@H](CN(C)C)c2cncc3cn[nH]c23)ccc1C(C)C",
    "IC50": "1000 to 15000 nM"
  },
  {
    "COMPOUND": "CCOc1cc(C(=O)N(CCN2C[C@H](F)C[C@H](F)C2)Cc2cncc3cn[nH]c23)ccc1-c1cccc(F)c1",
    "IC50": "< 100 nM"
  },
  {
    "COMPOUND": "CCOc1cc(C(=O)N(C)[C@H](c2cncc3cn[nH]c23)C2CNC2)ccc1-c1cccc(F)c1",
    "IC50": "100 to 500 nM"
  }
]

Query block: Return value of IC50 for input CCOc1cc(C(=S)N(C)[C@H](CCN(C)C)c2cncc3cn[nH]c23)ccc1-c1cccc(F)c1 , no commentary.
Result block: < 100 nM

Query block: Return value of IC50 for input CCOc1cc(C(=O)N(C)[C@H](CO)c2cncc3cn[nH]c23)ccc1-c1cccc(Cl)c1 , no commentary.
Result block: < 100 nM

Query block: Return value of IC50 for input CCOc1cc(C(=O)N(Cc2cnc(C)c3cn[nH]c23)[C@H]2CC[C@@H]2O)ccc1-c1cccc(F)c1 , no commentary.
Result block: < 100 nM

Query block: Return value of IC50 for input CCOc1cc(C(=O)N(C)[C@@H](CN2CC(N(C)C)C2)c2cncc3cn[nH]c23)ccc1-c1cccc(F)c1 , no commentary.
Result block: < 100 nM

Query block: Return value of IC50 for input CCOc1cc(C(=O)N(C)C(CN(CC)CC)c2cccc3cn[nH]c23)ccc1-c1cccc(F)c1 (stereo not drawn) , no commentary.
Result block: < 100 nM
